Provenance of the data: patent US20220332800A1

# targetDesc: T1, ZIKV-VLP (Native Antigen Inc.) (Zika virus)
# T1 construct: also called Zika VLP; ZVLP
# assayOverview: BLI binning on ZIKV-VLP; 1st mAb: Ab2
Items are presented alongside their recorded response of 2nd mAb.
measuredAttribute: response of 2nd mAb

[[record]]
binder = "anti-ZIKV antibody 289-3 (antibody, V domains shown, also called clone 289-3; subclone 289-3) VH: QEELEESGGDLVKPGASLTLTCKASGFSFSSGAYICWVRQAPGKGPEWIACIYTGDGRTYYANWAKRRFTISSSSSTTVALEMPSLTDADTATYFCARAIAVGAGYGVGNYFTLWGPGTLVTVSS VL: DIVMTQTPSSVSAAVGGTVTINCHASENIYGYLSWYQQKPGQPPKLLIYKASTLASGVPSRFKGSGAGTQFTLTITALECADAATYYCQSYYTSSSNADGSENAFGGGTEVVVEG"
measuredattribute = "response of 2nd mAb"
recordedresult = 3.79

[[record]]
binder = "anti-ZIKV antibody 306-2 (antibody, V domains shown) VH: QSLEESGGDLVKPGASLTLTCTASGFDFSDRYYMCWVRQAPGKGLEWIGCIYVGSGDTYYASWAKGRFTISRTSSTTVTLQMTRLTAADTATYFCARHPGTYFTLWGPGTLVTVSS VL: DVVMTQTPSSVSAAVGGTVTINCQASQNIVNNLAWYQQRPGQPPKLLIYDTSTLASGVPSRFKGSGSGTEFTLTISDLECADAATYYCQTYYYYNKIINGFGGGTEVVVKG"
measuredattribute = "response of 2nd mAb"
recordedresult = 4.51

[[record]]
binder = "anti-ZIKV antibody 242-3 (antibody, V domains shown, also called clone 242-3) VH: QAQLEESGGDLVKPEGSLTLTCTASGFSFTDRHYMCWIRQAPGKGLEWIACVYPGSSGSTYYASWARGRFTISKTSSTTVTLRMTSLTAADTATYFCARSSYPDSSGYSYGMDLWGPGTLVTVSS VL: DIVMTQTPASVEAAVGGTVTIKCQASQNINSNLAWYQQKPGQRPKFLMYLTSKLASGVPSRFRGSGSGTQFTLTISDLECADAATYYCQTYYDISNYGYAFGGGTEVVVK"
measuredattribute = "response of 2nd mAb"
recordedresult = 7.67

